Item-by-item account of inhibition at 50 ppm
Test system: Aspergillus niger
METHOD DESCRIPTION: Test for wood rotting-preventing effect (mycelium growth inhibition on malt extract agar)
Assay type: cell-based
ASSAY CONTEXT: 28° C.±2° C., 2 to 10 days, read-out: Rotting preventing effect (mycelium growth-inhibitory rate), ASN
READOUT TYPE: inhibition at 50 ppm

>>> df
                                   compound       value
0    CC(C)Oc1nsc(OCC#CI)c1C#N [Compound 51]  95 to 100%
1  CC(=O)Oc1nsc(SCOCC#CI)c1C#N [Compound 67]   80 to 94%
2    CC(C)Oc1snc(OCC#CI)c1C#N [Compound 23]  95 to 100%
3    CCOCCSc1snc(OCC#CI)c1C#N [Compound 16]   80 to 94%
4  CC(OCC#CI)Sc1snc(OC(F)F)c1C#N (stereo not drawn) [Compound 127]  95 to 100%
5    N#Cc1c(OCC#CI)nsc1SC(F)F [Compound 12]  95 to 100%

====

Test system: Aspergillus niger
METHOD DESCRIPTION: Test for wood rotting-preventing effect (mycelium growth inhibition on malt extract agar)
Assay type: cell-based
ASSAY CONTEXT: 28° C.±2° C., 2 to 10 days, read-out: Rotting preventing effect (mycelium growth-inhibitory rate), ASN
READOUT TYPE: inhibition at 50 ppm

In [3]: df
Out[3]:
                            smiles_repr          readout_type       value
0               CCSc1snc(OCOCC#CI)c1C#N  inhibition at 50 ppm  95 to 100%
1            N#Cc1c(OC(F)F)nsc1SCOCC#CI  inhibition at 50 ppm  95 to 100%
2                COc1snc(OCOCC#CI)c1C#N  inhibition at 50 ppm  95 to 100%
3            COC(=O)Sc1snc(OCC#CI)c1C#N  inhibition at 50 ppm   80 to 94%
4               CCSc1snc(SCOCC#CI)c1C#N  inhibition at 50 ppm   80 to 94%
5  CC(C)(C#CI)OCOc1nsc(S(C)(=O)=O)c1C#N  inhibition at 50 ppm  95 to 100%

====

Tested on: Rhizoctonia solani
METHOD DESCRIPTION: Test for controlling effect on sheath blight of rice
Format: in vivo
ASSAY CONTEXT: 120 h, 200 ppm spray, 24 hours after inoculation, rice 4-leaf stage, five days after inoculation, read-out: Controlling effect (control of disease), Sheath blight of rice
READOUT TYPE: pest or weed control at 200 ppm

                                    compound                     readout_type       value
 0                 N#Cc1c(OC(F)F)nsc1OCCC#CI  pest or weed control at 200 ppm  95 to 100%
 1  COc1nsc(SC(C)OCC#CI)c1C#N (stereo not drawn)  pest or weed control at 200 ppm  95 to 100%
 2                 N#CCOc1nsc(SCOCC#CI)c1C#N  pest or weed control at 200 ppm   80 to 94%
 3                  CC(C)Oc1snc(OCC#CI)c1C#N  pest or weed control at 200 ppm   80 to 94%
 4                N#Cc1c(OCOCC#CI)nsc1SC(F)F  pest or weed control at 200 ppm  95 to 100%
 5                    CSc1nsc(SCOCC#CI)c1C#N  pest or weed control at 200 ppm   80 to 94%
 6                      COc1snc(OCC#CI)c1C#N  pest or weed control at 200 ppm  95 to 100%
 7                   C=CCSc1snc(OCC#CI)c1C#N  pest or weed control at 200 ppm   60 to 79%
 8                     COc1nsc(OCCC#CI)c1C#N  pest or weed control at 200 ppm   80 to 94%
 9                   CCOc1snc(OCOCC#CI)c1C#N  pest or weed control at 200 ppm  95 to 100%
10                   CN(C)c1snc(OCC#CI)c1C#N  pest or weed control at 200 ppm  95 to 100%
11  CSc1snc(OC(C)OCC#CI)c1C#N (stereo not drawn)  pest or weed control at 200 ppm   80 to 94%
12                  N#Cc1c(OC(F)F)nsc1OCC#CI  pest or weed control at 200 ppm  95 to 100%
13                N#Cc1c(OC(F)F)nsc1SCOCC#CI  pest or weed control at 200 ppm  95 to 100%
14  CSc1snc(OCOC(C)C#CI)c1C#N (stereo not drawn)  pest or weed control at 200 ppm  95 to 100%
15                      COc1nsc(OCC#CI)c1C#N  pest or weed control at 200 ppm  95 to 100%
16          N#Cc1c(OCC#CI)nsc1S(=O)(=O)C(F)F  pest or weed control at 200 ppm  95 to 100%
17           CCS(=O)(=O)c1snc(OCOCC#CI)c1C#N  pest or weed control at 200 ppm  95 to 100%

====

Each item that follows carries a reported pest or weed control at 200 ppm.
System: Pseudoperonospora cubensis
METHOD DESCRIPTION: Test for controlling effect on downy mildew of cucumber
Type: in vivo
ASSAY CONTEXT: 168 h, 200 ppm spray, one day before inoculation, cucumber 2-leaf stage, read-out: Controlling effect (control of disease), Downy mildew of cucumber
READOUT TYPE: pest or weed control at 200 ppm

>>> print(df.to_string())
                                    compound               tested_target       value
 0         CSc1snc(OCC#CI)c1C#N [Compound 1]  Pseudoperonospora cubensis  95 to 100%
 1       CSc1snc(OCCC#CI)c1C#N [Compound 70]  Pseudoperonospora cubensis   80 to 94%
 2  CC(OCC#CI)Oc1nsc(SC(F)F)c1C#N (centres unmarked) [Compound 122]  Pseudoperonospora cubensis  95 to 100%
 3   N#CCOc1nsc(SCOCC#CI)c1C#N [Compound 63]  Pseudoperonospora cubensis  95 to 100%
 4     CSc1snc(SCOCC#CI)c1C#N [Compound 128]  Pseudoperonospora cubensis  95 to 100%
 5  CSc1snc(OC(C)OCC#CI)c1C#N (centres unmarked) [Compound 119]  Pseudoperonospora cubensis  95 to 100%
 6  N#Cc1c(SCOCC#CI)nsc1SCOCC#CI [Compound 140]  Pseudoperonospora cubensis  95 to 100%
 7  CC(=O)Oc1nsc(SCOCC#CI)c1C#N [Compound 67]  Pseudoperonospora cubensis   80 to 94%
 8  C=CC[S+]([O-])c1snc(OCC#CI)c1C#N (centres unmarked) [Compound 47]  Pseudoperonospora cubensis   80 to 94%
 9  N#Cc1c(OC(F)F)nsc1SCOCC#CI [Compound 60]  Pseudoperonospora cubensis  95 to 100%
10  CCS(=O)(=O)c1snc(OCOCC#CI)c1C#N [Compound 94]  Pseudoperonospora cubensis  95 to 100%
11  CSc1snc(OCOC(C)(C)C#CI)c1C#N [Compound 100]  Pseudoperonospora cubensis  95 to 100%
12  N#Cc1c(OCC#CI)nsc1S(=O)(=O)C(F)F [Compound 43]  Pseudoperonospora cubensis  95 to 100%
13     N#CCSc1snc(OCC#CI)c1C#N [Compound 17]  Pseudoperonospora cubensis  95 to 100%
14     CCSc1snc(OCOCC#CI)c1C#N [Compound 86]  Pseudoperonospora cubensis  95 to 100%
15  CCOc1snc(OCOC(C)C#CI)c1C#N (centres unmarked) [Compound 114]  Pseudoperonospora cubensis  95 to 100%
16  COc1nsc(SC(C)OCC#CI)c1C#N (centres unmarked) [Compound 125]  Pseudoperonospora cubensis  95 to 100%
17  CCS(=O)(=O)c1snc(OCCC#CI)c1C#N [Compound 78]  Pseudoperonospora cubensis   80 to 94%
18      C=CCSc1snc(OCC#CI)c1C#N [Compound 8]  Pseudoperonospora cubensis  95 to 100%
19  N#Cc1c(OCC#CI)nsc1N1CCOCC1 [Compound 35]  Pseudoperonospora cubensis  95 to 100%

====

System: Aspergillus niger
METHOD DESCRIPTION: Test for wood rotting-preventing effect (mycelium growth inhibition on malt extract agar)
Assay type: cell-based
ASSAY CONTEXT: 28° C.±2° C., 2 to 10 days, read-out: Rotting preventing effect (mycelium growth-inhibitory rate), ASN
READOUT TYPE: inhibition at 50 ppm

                                    compound      tested_target       value
 0                   CN(C)c1snc(OCC#CI)c1C#N  Aspergillus niger  95 to 100%
 1                  COCCOc1nsc(OCCC#CI)c1C#N  Aspergillus niger  95 to 100%
 2  CSc1snc(OCOC(C)C#CI)c1C#N (centres unmarked)  Aspergillus niger  95 to 100%
 3            CCS(=O)(=O)c1snc(OCCC#CI)c1C#N  Aspergillus niger  95 to 100%
 4             CN1CCN(c2snc(OCC#CI)c2C#N)CC1  Aspergillus niger   80 to 94%
 5                     CCOc1snc(OCC#CI)c1C#N  Aspergillus niger  95 to 100%
 6        N#Cc1c(OCC#CI)nsc1S(=O)(=O)C1CCCC1  Aspergillus niger   80 to 94%
 7                CC(C)Oc1snc(OCOCC#CI)c1C#N  Aspergillus niger  95 to 100%
 8                      COc1nsc(OCC#CI)c1C#N  Aspergillus niger  95 to 100%
 9                   C#CCSc1snc(OCC#CI)c1C#N  Aspergillus niger  95 to 100%
10          N#Cc1c(OCC#CI)nsc1S(=O)(=O)C(F)F  Aspergillus niger  95 to 100%
